Values were extracted from the supplement of paper PMC9170038.

Tested on: K4 kissing-loop RNA reporter;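 also: bound reporter read as fluorescence of individual clusters on recovered sequencing chips by microscopy, with normalized cluster intensities fitted with a binding model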
measurement notes: apparent KD of K4 kissing-loop reporter; higher = weaker reporter binding
condition parameters: Eterna round: R107; input ligand: FMN 200 uM
parameter measured: apparent KD of K4 kissing-loop reporter (nM)
Reply with just the number (in nM).

residue codes	apparent KD of K4 kissing-loop reporter, nM
CAUUCAGUGAUGUUGGAAGGCGAGCGGGAUACCAGCGGAGACUCACGCCCUUGGCAGCCCAUAUAUCCCAGGUAGAUAAUAGUUC [Same State - Theophylline A (Freestyle 5)]	276
AGAACUGUCUGAGAUACCAGCUAAGGAGUGAUGUUCCUAGCUCCACGAAAGUGGAGCCAUAGCCCUUGGCAGCUCAGACAGUUCA [Omei KL Theo B SS A v6]	866

Give the observed apparent KD of K4 kissing-loop reporter of CGGCGUGCCUUAUCCUCAUCUCUGACUCAACGAGGACCGGUACGGCCGCCACUCGGAAGAGGCAGUGAUGUUGCCUACGCCGGUG [Oronat] for K4 kissing-loop RNA reporter. 76.3

====

System: MS2 coat protein
measurement notes: apparent KD of MS2 coat protein; designed switch direction (-1 OFF switch, 1 ON switch): -1; higher = weaker reporter binding
condition parameters: input ligand: FMN 200 uM
Reported apparent KD of MS2 coat protein values for the following sequences.
Reply with just the number (in nM).

Give the observed apparent KD of MS2 coat protein of GGAUUUACUGAGGAUAUUGCAUCACCCGACUGAUAAGAAGGCAGAACAUGAGGAUCACCCAUGUGGGUAGUCAA [Bingo-Bango-3] (Eterna round: R97, puzzle: Exclusion 6) for MS2 coat protein. 29.6

====

Test system: MS2 coat protein
measurement notes: apparent KD of MS2 coat protein; higher = weaker reporter binding
condition parameters: Eterna round: R107; input ligand: none
Reported apparent KD of MS2 coat protein values for the following sequences.

residue codes	subject of test	apparent KD of MS2 coat protein
UGGUUUCGGUCAAUCACCGGUCCCUGGGAAGGAGCGGACUCAUGUCCAGGUAGGUCGCCCAGACAUGAGGAUCACCCAUGUGACA [Tiusdiin]	MS2 coat protein	0.174 µM

Consider the sequence AAAAUCCUACUUGAGGAUCACCCAGGUGAAGGAGCGCCCGAAAGGGCAGGUAGGUCGCACCUGAGGAUCACCCUGGUAACCUAAA [ArgEX 9 #DoubleMS2 #OpenEnded] . State its measured apparent KD of MS2 coat protein. 0.164 µM

Consider the sequence UUUUUCAUAGGUUAUAGUUUAGAAACUGAAGGAGCGUGGUAAUACACAGGUAGGUCGCAGAUUUUACAUGAGGAUCACCCAUGUU [JR_ExcArginiA_Sub014] . State its measured apparent KD of MS2 coat protein. 0.0232 µM

Consider the sequence UAUAUAGAUGGACGUCAUCUAGAUGCAGAAGGAGCGUAGGAAACUACAGGUAGGUCGCUGAGGUACAUGAGGAUCACCCAUGUAG [SSArg A #21 Slice of Pi] . State its measured apparent KD of MS2 coat protein. 0.0189 µM

Consider the sequence GUACAUGAGGAUCACCCAUGUAUAGUUGAAGGAGCGACCGGAGGGUCAGGUAGGUCGCAGCACAUGGCGUCAACCCGUGUAUGCC [#1 Exclusion - Arginine A Attempt #25 (Inspired by Pi)] . State its measured apparent KD of MS2 coat protein. 0.0173 µM

Consider the sequence ACAUGAGGAUCACCCAUGUAAUAAUCAGAAGGAGCGUGGAAUAACACAGGUAGGUCGCUGAUGUUUGGUUAAAUGUAAUCGUGUA [JR_SSArginiA_Sub001] . State its measured apparent KD of MS2 coat protein. 0.0135 µM
